# assayText: in vivo
# Design: species or system nude mice
# testConditions: nude, mouse, 2.5 mg/kg
valueKind: AUC(0-t) (ng·h/mL)
Your answer is read as ng·h/mL, so omit the unit and give the number.

Check the records and state AUC(0-t) for COc1cc(N2CCC3(CCN(C)CC3)CC2)ccc1Nc1ncc(Cl)c(Nc2ccccc2P(C)(C)=O)n1 [WX-0593] 3700

* * *

# assayText: in vivo
# testConditions: female, cynomolgus monkey, po, 50 mg/kg
valueKind: Cmax (ng/mL)
Only the number, expressed in ng/mL, is required.

Indicate the recorded Cmax value for this molecule: COc1cc(N2CCC3(CCN(C)CC3)CC2)ccc1Nc1ncc(Cl)c(Nc2ccccc2P(C)(C)=O)n1 [WX-0593] 4010

* * *

# assayText: Phase 1 dose-escalation phase: plasma pharmacokinetics
# Format: in vivo, human
# testConditions: human, plasma, oral, 120 mg, single dose 120 mg (n = 11), mean (SD)
valueKind: Tmax (h)
Number only, in h; omit the unit.

# return recorded Tmax for entry COc1cc(N2CCC3(CCN(C)CC3)CC2)ccc1Nc1ncc(Cl)c(Nc2ccccc2P(C)(C)=O)n1 1.81

* * *

# assayText: Metabolic stability in liver microsomes
# Format: in vitro ADME
# testConditions: cynomolgus monkey; cynomolgus monkeys liver microsomes
valueKind: CLint scaled

Check the records and state CLint scaled for COc1cc(N2CCC3(CCN(C)CC3)CC2)ccc1Nc1ncc(Cl)c(Nc2ccccc2P(C)(C)=O)n1 < 13 mL/min/kg

* * *

# assayText: Phase 1 dose-escalation phase: plasma pharmacokinetics
# Type: in vivo, human
# testConditions: human, plasma, oral; single dose 300 mg (n = 3), mean (SD); read-out: T1/2z (converted)
valueKind: half-life (h)
Your answer is read as h, so omit the unit and give the number.

Kindly indicate its recorded half-life. Item: COc1cc(N2CCC3(CCN(C)CC3)CC2)ccc1Nc1ncc(Cl)c(Nc2ccccc2P(C)(C)=O)n1 27.5

* * *

# assayText: in vivo
# testConditions: female, cynomolgus monkey, po, 50 mg/kg
valueKind: AUC(0-t) (ng·h/mL)
Value expressed in ng·h/mL; do not type the unit.

Assign AUC(0-t) to the following record: COc1cc(N2CCC3(CCN(C)CC3)CC2)ccc1Nc1ncc(Cl)c(Nc2ccccc2P(C)(C)=O)n1 50600

* * *

# assayText: Phase 1 dose-escalation phase: plasma pharmacokinetics
# Type: in vivo, human
# testConditions: human, plasma, oral, 240 mg, single dose 240 mg (n = 10), mean (SD)
# Protocol: Three patients were assigned to each dose level. In the dosing cohort of 30 mg, treatment included a single WX-0593 dose, followed by 7-day PK evaluation period, and subsequent daily oral dosing for continuous 21 days. […] Safety analysis was performed in the SS, which was comprised of all patients treated with one dose of WX-0593 and with safety data recorded. […] The plasma concentration of WX-0593 will be determined using LC-MS.
valueKind: Tmax (h)
Dear colleague, please return just the value in h, with no unit written.

For the compound COc1cc(N2CCC3(CCN(C)CC3)CC2)ccc1Nc1ncc(Cl)c(Nc2ccccc2P(C)(C)=O)n1 , give its measured Tmax value. 2.5

* * *

# assayText: Phase 1 dose-escalation phase: plasma pharmacokinetics
# Format: in vivo, human
# testConditions: human, plasma, oral; single dose 120 mg (n = 11), mean (SD)
# Protocol: Three patients were assigned to each dose level. In the dosing cohort of 30 mg, treatment included a single WX-0593 dose, followed by 7-day PK evaluation period, and subsequent daily oral dosing for continuous 21 days. […] Safety analysis was performed in the SS, which was comprised of all patients treated with one dose of WX-0593 and with safety data recorded. […] The plasma concentration of WX-0593 will be determined using LC-MS.
valueKind: AUC(0-inf) (ng·h/mL)
Reply with just the number (in ng·h/mL).

Entry COc1cc(N2CCC3(CCN(C)CC3)CC2)ccc1Nc1ncc(Cl)c(Nc2ccccc2P(C)(C)=O)n1 needs its AUC(0-inf) filled in; supply it. 8120
